Examples of compounds with documented TGI follow.
test system: HOP-62 NSCLC; test: NCI tumour cell line growth inhibition, 48 h

Below: 5 compounds and their reported TGI.
{"compound": "CC(C)[C@](O)(C(=O)OCC1=CCN2CC[C@@H](O)[C@@H]12)[C@H](C)O", "assayTarget": "HOP-62 NSCLC", "experimentalValue": "> 375 µM"}
{"compound": "CC(C)N(/C(F)=N\\C(=O)Nc1ccccc1C(F)(F)F)C(C)C", "assayTarget": "HOP-62 NSCLC", "experimentalValue": "> 100 µM"}
{"compound": "CC/C(CC(=O)CCC(=O)Nc1ccc(C)c(C)c1)=N\\NC(=O)C(N)=O", "assayTarget": "HOP-62 NSCLC", "experimentalValue": "> 100 µM"}
{"compound": "COCn1c(C)c(C)c2c(=O)oc(C)nc21", "assayTarget": "HOP-62 NSCLC", "experimentalValue": "> 100 µM"}
{"compound": "COC[C@@H](N=CN1CCc2cc(OC)c(OC)cc2C1)C(C)(C)C", "assayTarget": "HOP-62 NSCLC", "experimentalValue": "> 100 µM"}

Summary for this compound, O=C(NC(=O)c1cc2cc(Br)cc(Br)c2oc1=O)Oc1ccccc1 : TGI is > 100 µM

GET /value?item= Cc1nc2cccc([N+](=O)[O-])c2n1CCCN(C)C &field=TGI returns > 100 µM

Form: compound = CC12CCC(O)CC1=CCC1C2CCC2(C)C(c3cccnc3)=CCC12 (centres undefined) ; TGI = > 100 µM

Entry under test: C=CCN1C[C@@H](C)N([C@@H](c2ccc(C(=O)N(CC)CC)cc2)c2cccc(OC)c2)C[C@@H]1C . Its TGI was > 100 µM

Measured TGI of CC(=O)c1ccc2c(c1)N(CCCN(C)C)c1ccccc1S2 : 31.6 µM

Data point: CC1=C/C(=C2/N=C(N(C)C)SS2)C(C)=N1 ; TGI = > 100 µM

Value of measured TGI for the entry O=C1CCCC[C@H]1C(O)CC1CC(=O)N(c2ccccc2)C(=O)C1 (some centres undefined) : > 100 µM

Short answer for NC(=S)N/N=C1\CCCCC1C(O)(C(F)(F)Cl)C(F)(F)Cl (centres undefined) : TGI was > 10 µM

TGI reported for this compound COc1cc(C2C3=C(COC3=O)Nc3cc4c(cc32)OCO4)cc2c1OCO2 (centres undefined) : > 87.2 µM

====

test system: NCI/ADR-RES ovarian; assay: NCI tumour cell line growth inhibition, 48 h; in the data active means GI50 below about 0.43 µM; inactive means the rest
Reply using exactly one outcome from label 1 for active, label 0 for inactive

{"smilesRecord": "O=Nc1c(O)c2ccccc2c2ccccc12", "classAssignment": "label 1"}
{"smilesRecord": "CCOC(=O)c1nc2cc(C(F)(F)F)ccc2[n+]([O-])c1C", "classAssignment": "label 0"}
{"smilesRecord": "COc1ccc(Oc2cc(NCCC(F)(F)F)c3ncc(-c4ccc(C(=O)NC5CC5)c(C)c4)n3n2)c(F)c1F", "classAssignment": "label 1"}
{"smilesRecord": "CC1(C)CC(=O)c2c(ccc(C(=O)C[C@@H](N)CO)c2N)O1", "classAssignment": "label 0"}
{"smilesRecord": "CN(C)CCOc1ccc(-c2cc(-c3ccc4c(c3)CC/C4=N\\O)c(-c3ccncc3)o2)cc1", "classAssignment": "label 0"}
{"smilesRecord": "Oc1c(CNCCNCc2cc(Cl)cc(Cc3ccccc3)c2O)cc(Cl)cc1Cc1ccccc1", "classAssignment": "label 1"}
{"smilesRecord": "CCN(CC)c1ccc(/C=C/C=C(/C#N)C(N)=S)cc1", "classAssignment": "label 0"}
{"smilesRecord": "CNC(=O)c1cc2c(Oc3ccc(NC(=S)NC(=O)Cc4ccccc4)cc3F)ccnc2cc1OC", "classAssignment": "label 0"}

# evaluate next
# input In this assay, the call recorded for CC(C)(C)OC(=O)NCCCCCCCCCCn1c2c(c3ccccc3c1=O)C(=O)c1ccccc1-2 was what?
# output label 0

====

test system: UACC-257 melanoma; experiment: NCI tumour cell line growth inhibition, 48 h
A collection of compounds and their measured TGI

// COc1ccc(-c2nc3cc(C(F)(F)F)ccc3n2CC2CCCN3CCCCC23)cc1 (configuration not stated) : TGI value = 26.7 µM

Documented TGI of CCOP(=O)(CC(=O)C1=C(O)C(CCCCNC(=O)OC(C)(C)C)N(Cc2ccccc2)C1=O)OCC (configuration not stated) : > 100 µM

For reference, reported TGI for CS/C=C\C(=O)O[C@H]1C[C@@H]2[C@@H](O)c3occ(C)c3C[C@]2(C)[C@@H](C)C1 stands at 30.5 µM

Entry under test: COc1ccc(-c2cc(-c3ccccc3)nc3c2CC(=O)Nc2ccccc2-3)cc1OC . Its TGI was > 100 µM

The compound listed as O=C1CSC(C(N=Nc2ccc(Cl)cc2)c2nc3ccccc3[nH]2)=N1 (configuration not stated) has a reported TGI of > 100 µM

Memo: C[C@]12CC[C@@H]3c4ccc(O)cc4CC[C@H]3[C@@H]1CC[C@@H]2NS(=O)(=O)c1ccc2ccccc2c1 , reported TGI: 17.6 µM

====

system: RPMI-8226 leukemia; assay: NCI tumour cell line growth inhibition, 48 h
metric: GI50

{"smilesRecord": "O=S(=O)(NCCO)c1cc[c]([Sb](=[O])([OH])[OH])cc1", "assayTarget": "RPMI-8226 leukemia", "metric": "GI50", "experimentalValue": "> 100 µM"}

Reading of GI50 for O=C(c1ccccc1)c1nn(-c2ccccc2)c2nc3nc(-c4ccccc4)cc(=O)n3nc12 with RPMI-8226 leukemia: 21.4 µM

Fill in: RPMI-8226 leukemia GI50 for CN(C)CCOc1ccc(-c2cc(-c3ccc4c(c3)CC/C4=N\O)c(-c3ccncc3)o2)cc1 = 4.28 µM

RPMI-8226 leukemia GI50 of Clc1ccc(N2CCC(N3CCCC3)CC2)cc1-c1nc2ccccc2[nH]1 is 20.9 µM

Item CN(C)CCNc1nc2ccccc2c2occc12 ; assay system RPMI-8226 leukemia; GI50 reported as 58 µM

Field GI50 (RPMI-8226 leukemia), entry CCN(CC)c1ccc(/C=C/C=C(/C#N)C(N)=S)cc1 : 2.14 µM

====

test system: NCI-H226 lung; assay: NCI tumour cell line growth inhibition, 48 h
metric: TGI

Look over these answered cases.
{"molecule": "CCOC(=O)c1nc2cc(C(F)(F)F)ccc2[n+]([O-])c1C", "TGI": "> 100 µM"}
{"molecule": "C#CC(=O)OCC#CCOC(=O)C#C", "TGI": "40.3 µM"}
{"molecule": "O=C1C=C2CC[C@H]3[C@@H]4CC[C@H](Oc5c6ccccc6nc6ccccc56)[C@H]4CC[C@@H]3[C@H]2CC1", "TGI": "> 100 µM"}

The reported value for CCn1c(=O)c2c3cc(OC(C)=O)ccc3oc2c2ccc(OC(C)=O)cc21 in terms of TGI is > 100 µM

CC(=O)OC1[C@@H](OC(C)=O)CN(OCc2ccccc2)C[C@H]1OC(C)=O (stereo not given in full) yielded TGI of > 100 µM

====

tested on: COLO 205 colon; assay: NCI tumour cell line growth inhibition, 48 h; in the data active = GI50 below about 0.43 µM; inactive = the rest
A correct response names exactly one class from active, inactive

Worked cases, answers included:
{"compound": "CCN(CC)c1ccc(/C=C/C=C(/C#N)C(N)=S)cc1", "classAssignment": "inactive"}
{"compound": "CC(OC(=O)N(N(CCCl)S(C)(=O)=O)S(C)(=O)=O)c1ccc([N+](=O)[O-])cc1 (stereo not given)", "classAssignment": "inactive"}
{"compound": "CN(C)CCOc1ccc(-c2cc(-c3ccc4c(c3)CC/C4=N\\O)c(-c3ccncc3)o2)cc1", "classAssignment": "active"}

# input # fetch the recorded call for CSc1nc(N)c2c(n1)NC(c1ccccc1)C1CCc3ccccc3C1=N2 (stereo not given) here
# output inactive

# input Hello, I am checking results. What call was entered for Oc1c(CNCCNCc2cc(Cl)cc(Cc3ccccc3)c2O)cc(Cl)cc1Cc1ccccc1 ?
# output active

====

system: HCT-116 colon; assay: NCI tumour cell line growth inhibition, 48 h; in the data active = GI50 below about 0.43 µM; inactive = the rest
# valid calls are active, inactive; nothing else

Example entries and their recorded answers appear below.
{"molecule": "Nc1cc2nc3ccccc3oc-2cc1=O", "classAssignment": "inactive"}
{"molecule": "CCN(Cc1cccc(F)c1F)c1ccc(CO)c(Cl)c1", "classAssignment": "active"}
{"molecule": "CCOC(=O)c1nc2cc(C(F)(F)F)ccc2[n+]([O-])c1C", "classAssignment": "inactive"}
{"molecule": "CNC(=O)c1cc2c(Oc3ccc(NC(=S)NC(=O)Cc4ccccc4)cc3F)ccnc2cc1OC", "classAssignment": "inactive"}
{"molecule": "COc1cc(C2C3=C(COC3=O)Nc3cc4c(cc32)OCO4)cc2c1OCO2 (stereo unspecified)", "classAssignment": "active"}

Proceed to the following item.
# input I would be grateful if you could indicate the recorded call for COc1ccc(C#CC2=C(c3cc(OC)c(OC)c(OC)c3)C(=O)OC2)cc1 .
# output inactive
